The measured values listed here are drawn from ChEMBL document CHEMBL3832549.

# Test Method Notes: Evaluation of pharmacokinetic parameters for Budesonide following single oral administration of Budesonide capsules (enteric coated) to healthy subjects and/or patients with Crohn's disease.
# Type: ADME, organism-based
# Set-up: dose 9 mg, route oral
# Condition Info: human, in vivo, 9 mg; dosed compound id 9, dosed compound name BUDESONIDE, regimen Single dose, route oral, tissue Plasma
Metric: Tmax

- CCCC1O[C@@H]2C[C@H]3[C@@H]4CCC5=CC(=O)C=C[C@]5(C)[C@H]4[C@@H](O)C[C@]3(C)[C@]2(C(=O)CO)O1 (stereo partly specified) [BUDESONIDE]: 0.5 to 10 h

* * *

# System: Homo sapiens
# Test Method Notes: Evaluation of pharmacokinetic parameters for Budesonide following single oral administration of Budesonide capsules (enteric coated) to healthy subjects and/or patients with Crohn's disease.
# Format: ADME, organism-based
# Set-up: dose 9 mg, route oral
# Condition Info: in vivo, po, dosed compound id 9, dosed compound name BUDESONIDE, gender male and female, regimen Single dose, tissue Plasma
Metric: Vd

- CCCC1O[C@@H]2C[C@H]3[C@@H]4CCC5=CC(=O)C=C[C@]5(C)[C@H]4[C@@H](O)C[C@]3(C)[C@]2(C(=O)CO)O1 (stereo partly specified) [BUDESONIDE]: 2.2 to 3.9 L/kg

* * *

# Test Method Notes: Evaluation of pharmacokinetic parameters for Budesonide following single oral administration of Budesonide capsules (enteric coated) to healthy subjects and/or patients with Crohn's disease.
# Assay type: ADME, organism-based
# Parameters: dose 9 mg, route oral
# Condition Info: human, in vivo, po, 9 mg; dosed compound id 9, dosed compound name BUDESONIDE, gender male and female, regimen Single dose, tissue Plasma
Metric: Cmax

* CCCC1O[C@@H]2C[C@H]3[C@@H]4CCC5=CC(=O)C=C[C@]5(C)[C@H]4[C@@H](O)C[C@]3(C)[C@]2(C(=O)CO)O1 (stereo partly specified) [BUDESONIDE] | 5 nM

* * *

# Test Method Notes: Evaluation of pharmacokinetic parameters for Budesonide following single oral administration of Budesonide capsules (enteric coated) to healthy subjects and/or patients with Crohn's disease.
# Assay type: ADME, organism-based
# Parameters: dose 9 mg, route oral
# Condition Info: human, in vivo, po; at 9 mg; dosed compound id 9, dosed compound name BUDESONIDE, gender male and female, regimen Single dose, route oral, tissue Plasma; read-out: Protein binding
Metric: fraction unbound

* CCCC1O[C@@H]2C[C@H]3[C@@H]4CCC5=CC(=O)C=C[C@]5(C)[C@H]4[C@@H](O)C[C@]3(C)[C@]2(C(=O)CO)O1 (stereo partly specified) [BUDESONIDE] | 0.1 to 0.15
